# measurement notes: soluble on expression in E. coli; label from the status in PepcDB or PDB records

seq	soluble on expression in E. coli
MKQTTINHSVELVGIGLHKGVPVKLVLEPLGENQGIVFYRSDLGVNLPLKPENIVDTKMATVLGKDNARISTIEHLLSAVHAYGIDNLKISVDNEEIPIMDGSALTYCMLLDEAGIKELDAPKKVMEIKQAVEIRESDKFVKIEPDSQLSLNFTIDFNHPVIAKQAHHFVFSKTAYKEQVAKARTFGFLQEVNYLRSIGLAKGGSLNNCIVLDENSILNKEGLRCEKEFVCHKILDAMGDLMVLGMPVMGKYTSFSGSHKLNSMLVKAILADAKNYEVLIAADPAKEFALQKAFALEHHHHHH	not soluble
RVSNEFPPREYIATVYNRICNYLQIGEGEGFERSFDFDIDAFCRNFRMFPTQVLAAIRILDVAGIWEYREEKTRSRLTIQVQRDELYRMRSEQASDSVLTALMRTYDGLFADYVSIVESELAEKTGLSVDQVYQQLLLLNKAGIVNYIPQKNLPRIYFLTRREDAELLQIPRAAYEDRRDRLKARIDQSLRYIEEENTCRSRMLLAYFGEEQSHNCKLCDVCLRRKDGELHHHEVDDLLHFLEQRLTEETPYVLIADICRELHHHPDVVLKAIRFVMKESWQYSTDGDTVFLTHKLPGGLNL	not soluble
MAHHHHHHMNYNNNSFIPPTHVVKNIYTSAKTKFFLIKSSSDKNIAISLNYNIWATTPKNEYKFVSAFMEHDYVILVFSVNGSSKFCGYAIMQSKPGESKNNNVYFYYDNKVFRGKNFDIQWIRVVDVPFQEVAHLKNSLNEYKPIKVGRDGQEIEQMAGIQLCEAFESNFIKINNNITDTNTKPNIPPMYNMNTNNYVDSPNMNENIDMIKLYPYNNNFNINYNNFRNLYEESQYNLFNFYNPALHIFPIDLTNMNYDEYIYLYEKSQLVWQQKMLQMKANMNCIKQ	not soluble
MGSDKIHHHHHHMNRLRYSVNLSYEILDPTGDFLLIVEAAKTARQSVVSERLALTPPAHAARYTDPLGNRLLRIRANKGPLAIRYEAVVDIDHRLDDGMSLTEVPVAELPFDVLSYLAPSRYCESDRMMEFAMREFGSMRPGYSRVYAIREWVRNHVRFLSRSTNERTSAIDTIVERTGVCRDFSHLMIAICRALSIPARMSSSVDYGADPALGAPDFHAVVEVFLSGGWYLLDPSGVSIPTGLLRIGTGRDAADIPFAAIFGKVESKRPFIEIQPIADPVAGIGLPLATTSAISTW	not soluble
MILAIDLGTSGAKAAIIDSAGAVHEQTFVPYSTTKLPNGGVEQDPMQWVSAARQAVTRLPRSYSVVSFTGQMQDLICLDRAGRPLGQALLYNDARAAAEAARLNTVVPEWKDITGNRQTATSTAAMWLRLMEQSD	not soluble
